molecular target: PFKFB4 (Homo sapiens, UniProt Q16877)
Sequence (Q16877 whole entry, species assumed): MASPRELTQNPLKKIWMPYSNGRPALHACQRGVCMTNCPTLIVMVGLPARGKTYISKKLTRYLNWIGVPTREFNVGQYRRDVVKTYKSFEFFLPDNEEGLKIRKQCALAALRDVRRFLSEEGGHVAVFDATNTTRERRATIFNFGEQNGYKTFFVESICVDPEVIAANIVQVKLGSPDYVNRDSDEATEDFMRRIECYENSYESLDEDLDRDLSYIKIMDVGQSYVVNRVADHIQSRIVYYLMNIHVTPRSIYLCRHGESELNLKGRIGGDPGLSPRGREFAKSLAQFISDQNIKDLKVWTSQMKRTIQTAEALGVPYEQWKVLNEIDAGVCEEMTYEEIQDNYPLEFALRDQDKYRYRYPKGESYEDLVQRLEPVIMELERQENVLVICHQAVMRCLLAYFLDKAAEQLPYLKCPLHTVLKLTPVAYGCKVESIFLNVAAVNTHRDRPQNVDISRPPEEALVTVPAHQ
pIC50: −log10 of the molar value.
Metric name: pIC50

1) O=C(O)c1ccc(NS(=O)(=O)c2cccc(-c3cc(F)ccc3O)c2)cc1O : 5.44
